- TESTED_ON: Fc portion of human IgG
- Construct: fused on or other part: horseradish peroxidase chemically conjugated to the IgG (detection label)
- PROTOCOL_DETAILS: Competitive protein A binding ELISA
- CONDITION_SUMMARY: inhibition of binding of protein A to HRP-human IgG; assay in PBS
- Description: The competitive protein A binding ELISA assay was performed on a 96-well plate MAXISORP® surface to enhance the binding of protein A to the bottom of the plate. The wells were coated with 100 μL of protein A (0.8 μg) and incubated overnight at 4° C. After incubation, unbound protein A was removed by three washes with phosphate buffer saline (PBS). […] The plate was then read at 405 nm on a EL 800, universal microplate reader (Bio-Tek). […]
Kindly apply the following: criterion met if IC50 is less than 100 nM, criterion not met in every other case.

Some entries whose results are on file:
-- ask is_below(IC50, 100 nM) for Nc1ccc(CNc2nc(NCCCCCCO)nc(Nc3cccc(N)c3)n2)cc1 ?
-- reply criterion not met

-- ask is_below(IC50, 100 nM) for Nc1ccc(CCNc2nc(NCCCCCCO)nc(Nc3cccc(N)c3)n2)cc1 ?
-- reply criterion met

-- ask is_below(IC50, 100 nM) for Nc1ccc(CCNc2nc(NCCCCO)nc(Nc3cccc(N)c3)n2)cc1 ?
-- reply criterion not met

-- ask is_below(IC50, 100 nM) for NCCNc1nc(Nc2cccc(N)c2)nc(Nc2cccc(N)c2)n1 ?
-- reply criterion not met

-- ask is_below(IC50, 100 nM) for Nc1ccc(CCNc2nc(Nc3cccc(N)c3)nc(NC3CCCC3)n2)cc1 ?
-- reply criterion not met

New cases:
-- ask is_below(IC50, 100 nM) for COc1cccc(Nc2nc(NCC3CC3)nc(Nc3cccc(N)c3)n2)c1 ?
-- reply criterion not met

-- ask is_below(IC50, 100 nM) for Nc1cccc(Nc2nc(NCCc3ccccc3N)nc(NCC3CC3)n2)c1 ?
-- reply criterion not met
